# Tested on: Candida parapsilosis
# experimental-protocol: Antifungal activity against Candida parapsilosis isolate CP2 measured after 48 hrs by CLSI M27-A3 protocol based method
# Format: functional
# setup-conditions: Lodderomyces parapsilosis, isolate CP2, 48 h
Assignment: determine reported MIC for the given molecules.

Guide cases for MIC, answers given:
INSERT INTO results (molecule, measured_endpoint, obs_value) VALUES
  ('CC(C)c1ccc(NCC(O)(Cn2cncn2)c2ccc(F)cc2F)cc1 (stereo not drawn)', 'MIC', '10.5 µM'),
  ('CCCCCCCCN(CCCCCCCC)CC(O)(Cn1cncn1)c1ccc(F)cc1F (stereo not drawn)', 'MIC', '4.1 µM');

--- query ---
Give recorded MIC with Candida parapsilosis for the following molecule: `CC[C@H](C)C[C@H](C)CCCCCCCCC(=O)N[C@H]1C[C@@H](O)[C@@H](NCCN)NC(=O)[C@@H]2[C@@H](O)CCN2C(=O)[C@H]([C@H](O)CCN)NC(=O)[C@H]([C@H](O)[C@@H](O)c2ccc(O)cc2)NC(=O)[C@@H]2C[C@@H](O)CN2C(=O)[C@H]([C@@H](C)O)NC1=O` 0.4 µM
